B1: HDV Ribozyme (parent)
chain: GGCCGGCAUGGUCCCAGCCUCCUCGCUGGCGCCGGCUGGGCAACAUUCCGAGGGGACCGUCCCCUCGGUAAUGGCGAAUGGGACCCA

variants of: B1; assay: self-cleavage, relative activity (ratio to wild type); higher = more cleavage; co-transcriptional
EXPERIMENTAL_READOUT: self-cleavage
Please reply with the number alone, leaving off any unit.

variant GGCCGGCAUGGUCCCAGCCUCCUCGCUGGCGCCGGCUGGGCAACAUACCGAGGGGACCGUCCCCUCGGUAAUGACGAAUGGGACCCA [U47A G74A] , self-cleavage observed: 0.688

variant GGCCGGCAUGGUCCCAGCCUCCUCGCUGGCGCCGGCUGGGCAACAUUCCGAGGCGACCGUCCCCUCGGUAAUGGCGAAUGGGAACCA [G54C C84A] , self-cleavage observed: 0.598

variant GGCCGGCAUGGUCCUAGCCUCCUCGCUGGCGCCGGCUGGGCAACAUUCCGAGGGGACAGUCCCCUCGGUAAUGGCGAAUGGGACCCA [C15U C58A] , self-cleavage observed: 0.997

variant GGCCGGCAUGGUCCCAGCCUCCUCGCUGGCGCCGGCUGGGCAACAUUCCGAGGGGACCGUCCUCUCGGUAAUGCCGAAUGGGACCCA [C63U G74C] , self-cleavage observed: 0.201

variant GGCCGGCAUGGUCCCAGCCUCCUCGCUGGCGCCGGCUGGGCAACAUUCCGAGGGGACCGGCCCCUCGGUAAUGGCGAAUGGGACCAA [U60G C86A] , self-cleavage observed: 1.01

variant GGCCGGCAUGGUCCCAGCCUCCUCGCUGGCGCCGGCUGGGCAUCAUUCCGAGGCGACCGUCCCCUCGGUAAUGGCGAAUGGGACCCA [A43U G54C] , self-cleavage observed: 0.196

variant GGCCGGCAUGGUCCCAGCCUCCUCGCUGGCGCCGGCUGGGCAACAUUCCGAGGGGACCGUCCCCUCGGUAAGUGCGAAUGGGACCCA [U72G G73U] , self-cleavage observed: 0.554

variant GGCCGGCAUGGUCCCAGCCGCCUCGCUGGCGCCGGCUGGGCAACAUUCCGAGGGGACCGUCCCCUCGGUAAUGGCCAAUGGGACCCA [U20G G76C] , self-cleavage observed: 0.35

***
variant GGCCGGCAUGGUCCCAGCCUCCUCGCUGGCGCCGGCUGGGCAACAUUCCGAGGGGACCGUCCCCUCGGUAAUGGCGAAUGGGUCGCA [A83U C85G] , self-cleavage observed: 0.208

variant GGCCGGCAUGGUCCCAGCCUCCUCGCUGGCGCCGACUGGGCAACAUUCCAAGGGGACCGUCCCCUCGGUAAUGGCGAAUGGGACCCA [G35A G50A] , self-cleavage observed: 0.692

variant GGCCGGCAUGGUCCAAGCCUCCUCGCUGGCGCCGGCUGGGCAACAUUCCGAGGGGACCGUCCCCUCGGUAAGGGCGAAUGGGACCCA [C15A U72G] , self-cleavage observed: 0.277
